Record form. Attribute: Value relative to DMSO control, drug alone (without KCN), Mean. Fill in for each entry.
system: L1 wild-type C. elegans; experiment: 15-hour motility assay with drug alone (no KCN); type: cell-based, Caenorhabditis elegans; details: without KCN, 0.1 µM, 15-hour, mean of replicates
Simply state the number, no unit and no words.

// lookup Value relative to DMSO control, drug alone (without KCN), Mean | system=L1 wild-type C. elegans | key= O=C(Nc1ccc([N+](=O)[O-])cc1Cl)c1cc(Cl)ccc1O [Niclosamide]
0.944

// lookup Value relative to DMSO control, drug alone (without KCN), Mean | system=L1 wild-type C. elegans | key= O=C(Nc1cc(Cl)cc(Cl)c1O)c1c(O)c(Cl)cc(Cl)c1Cl [Oxyclozanide]
1.014

// lookup Value relative to DMSO control, drug alone (without KCN), Mean | system=L1 wild-type C. elegans | key= O=C(Nc1ccc(Oc2ccc(Cl)cc2)c(Cl)c1)c1cc(I)cc(I)c1O [Rafoxanide]
0.952

// lookup Value relative to DMSO control, drug alone (without KCN), Mean | system=L1 wild-type C. elegans | key= Cc1cc(C(C#N)c2ccc(Cl)cc2)c(Cl)cc1NC(=O)c1cc(I)cc(I)c1O (stereo not shown) [Closantel]
0.999

* * *

target: C. elegans complex II (succinate dehydrogenase) (Caenorhabditis elegans, UniProt O62215+P41956+Q09545); assay: In vitro complex II activity assay, C. elegans mitochondria; type: biochemical; conditions: 100 μM of NPD compound; C. elegans mitochondria; mean of four biological replicates
Sequence (P41956 30-182): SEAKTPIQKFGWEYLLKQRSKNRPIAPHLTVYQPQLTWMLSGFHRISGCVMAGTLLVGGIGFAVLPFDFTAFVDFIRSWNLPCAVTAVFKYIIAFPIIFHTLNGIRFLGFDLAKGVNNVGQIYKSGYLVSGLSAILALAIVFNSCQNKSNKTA
Sequence (Q09545 22-298): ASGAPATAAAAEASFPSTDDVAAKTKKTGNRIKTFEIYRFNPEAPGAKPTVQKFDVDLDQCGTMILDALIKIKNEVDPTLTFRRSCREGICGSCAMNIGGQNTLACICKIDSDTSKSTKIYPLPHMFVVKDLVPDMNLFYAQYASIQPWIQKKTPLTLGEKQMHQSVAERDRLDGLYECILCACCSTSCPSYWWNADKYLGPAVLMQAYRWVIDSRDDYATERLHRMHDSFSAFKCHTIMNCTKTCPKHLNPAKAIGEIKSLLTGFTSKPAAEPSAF
Sequence (Q09508 32-646, further chain): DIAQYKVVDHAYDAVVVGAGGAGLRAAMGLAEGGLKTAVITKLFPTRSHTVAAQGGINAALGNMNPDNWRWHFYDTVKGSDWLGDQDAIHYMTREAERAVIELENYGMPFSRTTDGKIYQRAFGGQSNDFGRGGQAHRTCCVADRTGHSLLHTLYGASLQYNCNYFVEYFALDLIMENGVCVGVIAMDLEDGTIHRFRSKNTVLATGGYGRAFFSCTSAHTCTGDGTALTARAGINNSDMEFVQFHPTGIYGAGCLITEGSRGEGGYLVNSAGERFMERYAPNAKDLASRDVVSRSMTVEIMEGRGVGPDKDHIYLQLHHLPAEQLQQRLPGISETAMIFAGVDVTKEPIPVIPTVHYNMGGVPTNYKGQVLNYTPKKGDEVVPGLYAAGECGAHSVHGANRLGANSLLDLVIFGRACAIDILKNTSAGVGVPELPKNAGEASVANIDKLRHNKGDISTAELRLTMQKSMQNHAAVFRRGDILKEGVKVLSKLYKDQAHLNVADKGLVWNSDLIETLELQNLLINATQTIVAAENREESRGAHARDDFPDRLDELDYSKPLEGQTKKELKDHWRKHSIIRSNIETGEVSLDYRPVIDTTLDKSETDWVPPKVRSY
Sequence (O62215 31-145): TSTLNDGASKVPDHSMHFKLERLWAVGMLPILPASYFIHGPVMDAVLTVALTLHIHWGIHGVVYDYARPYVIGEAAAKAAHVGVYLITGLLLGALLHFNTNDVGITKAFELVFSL
Record form. Attribute: Percent in vitro activity, Complex II (Mean). Fill in for each entry.
Reply with just the number (in %).

// lookup Percent in vitro activity, Complex II (Mean) for `CCCCCCCCCCCCCCCc1cccc(O)c1C(=O)O`
87.618

// lookup Percent in vitro activity, Complex II (Mean) for `Cc1cc(O)c(C(=O)/C=C/c2ccccc2)c(=O)o1`
86.409

// lookup Percent in vitro activity, Complex II (Mean) for `COc1ccc(-c2cc(=Nc3ccc(C)cc3)c3ccccc3o2)cc1OC`
103.012

// lookup Percent in vitro activity, Complex II (Mean) for `COc1ccc(-c2cc(=Nc3ccccc3N)c3ccccc3o2)cc1`
102.271

* * *

target: C. elegans (N2) complex I (NADH:ubiquinone oxidoreductase) (Caenorhabditis elegans, UniProt P24887+Q93873+Q94360); experiment: biochemical; format: biochemical; details: log10 of IC50 in µM; C. elegans mitochondria
Sequence (Q94360 17-199): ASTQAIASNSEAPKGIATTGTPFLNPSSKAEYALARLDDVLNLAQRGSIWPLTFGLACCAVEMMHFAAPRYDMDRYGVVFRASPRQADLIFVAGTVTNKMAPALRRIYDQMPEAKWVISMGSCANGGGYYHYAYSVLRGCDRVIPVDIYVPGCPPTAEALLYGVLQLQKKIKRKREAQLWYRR
Sequence (P24887 whole entry): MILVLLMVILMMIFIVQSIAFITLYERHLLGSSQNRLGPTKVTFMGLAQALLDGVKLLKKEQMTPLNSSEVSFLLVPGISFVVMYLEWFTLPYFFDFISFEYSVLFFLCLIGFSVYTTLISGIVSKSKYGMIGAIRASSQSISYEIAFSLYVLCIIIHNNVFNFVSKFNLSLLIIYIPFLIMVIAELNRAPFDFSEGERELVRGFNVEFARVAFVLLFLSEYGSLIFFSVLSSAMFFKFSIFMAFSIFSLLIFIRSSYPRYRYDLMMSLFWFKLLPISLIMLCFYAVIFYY
Sequence (Q93873 31-482): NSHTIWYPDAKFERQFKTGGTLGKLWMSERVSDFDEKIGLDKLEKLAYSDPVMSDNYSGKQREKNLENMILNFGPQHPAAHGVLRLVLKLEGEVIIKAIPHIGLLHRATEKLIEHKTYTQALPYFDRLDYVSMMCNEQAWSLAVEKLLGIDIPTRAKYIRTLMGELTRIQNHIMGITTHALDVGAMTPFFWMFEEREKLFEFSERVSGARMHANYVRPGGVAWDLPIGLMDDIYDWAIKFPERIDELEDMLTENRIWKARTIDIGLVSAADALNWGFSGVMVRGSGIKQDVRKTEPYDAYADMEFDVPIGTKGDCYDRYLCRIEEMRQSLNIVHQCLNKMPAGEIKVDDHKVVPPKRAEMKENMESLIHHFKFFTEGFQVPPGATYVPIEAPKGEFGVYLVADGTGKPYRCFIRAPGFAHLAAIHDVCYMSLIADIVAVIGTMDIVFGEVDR
Record form. Attribute: Log IC50 C. elegans complex I. Fill in for each entry.
Reply with just the number (in µM).

// lookup Log IC50 C. elegans complex I for `Cc1nc2ccccc2n1CCOc1ccccc1Cl`
0.37

// lookup Log IC50 C. elegans complex I for `Cc1nc2ccccc2n1Cc1ccc(C(C)(C)C)cc1`
0.41

// lookup Log IC50 C. elegans complex I for `Cc1cccc(OCCn2c(C)nc3ccccc32)c1`
-0.0757

// lookup Log IC50 C. elegans complex I for `Cc1nc2ccccc2n1Cc1ccc(Cl)c(Cl)c1`
-0.33

// lookup Log IC50 C. elegans complex I for `CCc1ccc(CNc2nc3ccccc3n2C)cc1`
1.61

* * *

Record form. Attribute: activity at 0.001 µM. Fill in for each entry.
molecular target: C. elegans (N2) complex I (NADH:ubiquinone oxidoreductase) (Caenorhabditis elegans, UniProt P24887+Q93873+Q94360); assay: biochemical; format: biochemical; conditions: Dose 0.001 µM; read-out: C. elegans mitochondrial complex I activity
Could you give the number and then its unit, please?

// lookup activity at 0.001 µM for `Brc1ccccc1OCCCCn1cnc2ccccc21`
81.8%

// lookup activity at 0.001 µM for `Nc1nc2ccccc2n1Cc1ccc(Cl)cc1`
93.5%

// lookup activity at 0.001 µM for `Cc1nc2ccccc2n1CCOc1ccccc1Cl`
89.2%

// lookup activity at 0.001 µM for `Clc1ccc(Cn2cnc3ccccc32)cc1Cl`
95.2%

// lookup activity at 0.001 µM for `Clc1ccccc1OCCCCn1cnc2ccccc21`
95.9%

* * *

assay: in vitro; conditions: human, HEK293 viability, dose 3.1 µM; Mean of replicates
reported.metric: viability (%)
Reply with just the number (in %).

// lookup viability for C=C(C)[C@H]1Cc2c(ccc3c2O[C@@H]2COc4cc(OC)c(OC)cc4[C@@H]2C3=O)O1 [Rotenone, reference compound]
47

* * *

Record form. Attribute: viability. Fill in for each entry.
test: in vitro; settings: human, HEK293 viability, Dose 3.13 µM
Reply with just the number (in %).

// lookup viability for Cc1ccc(CSCc2nc3ccccc3[nH]2)cc1 [Compound 7121781]
86.1

// lookup viability for CC(C)Oc1cccc(OCCn2cnc3ccccc32)c1 [Compound 7926496]
91.5

* * *

assay: in vitro; settings: human, HEK293 cells (Flp-In-293), HEK293 viability, Dose 100 µM
reported.metric: viability at 2 days, 100 µM (%)
Reply with just the number (in %).

// lookup viability at 2 days, 100 µM for `Clc1ccccc1OCCCCn1cnc2ccccc21`
8

// lookup viability at 2 days, 100 µM for `Cc1nc2ccccc2n1Cc1ccc(Cl)c(Cl)c1`
15.5

// lookup viability at 2 days, 100 µM for `Cc1ccc(SCCCCn2cnc3ccccc32)cc1`
25.7

* * *

Record form. Attribute: viability at 2 days, 12.5 µM. Fill in for each entry.
test: in vitro; details: human, HEK293 cells (Flp-In-293), HEK293 viability, Dose 12.5 µM
Reply with just the number (in %).

// lookup viability at 2 days, 12.5 µM for CC(C)Oc1cccc(OCCn2cnc3ccccc32)c1 [Compound 7926496]
96.9

// lookup viability at 2 days, 12.5 µM for Cc1ccc(OCCn2cnc3ccccc32)cc1 [Compound 5671538]
97.1

// lookup viability at 2 days, 12.5 µM for Clc1ccc(OCCn2cnc3ccccc32)c(Cl)c1 [Compound 7221649]
100

// lookup viability at 2 days, 12.5 µM for Clc1ccccc1OCCCCn1cnc2ccccc21 [Compound 7925804]
97.9

// lookup viability at 2 days, 12.5 µM for CCCOc1ccc(Cn2cnc3ccccc32)cc1 [Compound 7355741]
100

// lookup viability at 2 days, 12.5 µM for Cc1ccc(SCCCCn2cnc3ccccc32)cc1 [Compound 7925333]
99.2

// lookup viability at 2 days, 12.5 µM for Cc1ccccc1OCCCCn1cnc2ccccc21 [Compound 7732524]
100

// lookup viability at 2 days, 12.5 µM for Cc1nc2ccccc2n1Cc1ccc(Cl)c(Cl)c1 [Compound 5655567]
100

// lookup viability at 2 days, 12.5 µM for Nc1nc2ccccc2n1Cc1ccc(Cl)cc1 [Compound 5652765]
92.9

// lookup viability at 2 days, 12.5 µM for Cc1ccc(C(C)C)c(OCC(O)Cn2cnc3ccccc32)c1 (stereo not shown) [Compound 6093301]
85.6

// lookup viability at 2 days, 12.5 µM for Cc1cccc(OCCn2c(C)nc3ccccc32)c1 [Compound 6285199]
100

// lookup viability at 2 days, 12.5 µM for Cc1ccc(SCCCn2cnc3ccccc32)cc1 [Compound 7926035]
98.4

// lookup viability at 2 days, 12.5 µM for Clc1ccc(Cn2cnc3ccccc32)cc1Cl [Compound 5571325]
49.8

* * *

molecular target: B. taurus (heart) complex I (Bos taurus, UniProt P03887+P17694+P42026); assay: biochemical; type: biochemical; conditions: B. taurus; dose 0.313 µM; individual replicates (Rep); read-out: Complex I activity, dose-response data
Sequence (P03887 whole entry): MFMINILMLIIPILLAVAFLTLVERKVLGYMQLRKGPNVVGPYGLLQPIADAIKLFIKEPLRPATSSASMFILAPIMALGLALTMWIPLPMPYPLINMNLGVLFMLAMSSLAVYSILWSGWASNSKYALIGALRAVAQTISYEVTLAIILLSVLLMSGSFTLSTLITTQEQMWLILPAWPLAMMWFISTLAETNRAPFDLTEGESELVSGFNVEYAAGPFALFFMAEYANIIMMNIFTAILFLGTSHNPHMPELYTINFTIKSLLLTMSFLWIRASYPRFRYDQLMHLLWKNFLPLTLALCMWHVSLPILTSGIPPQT
Sequence (P17694 34-463): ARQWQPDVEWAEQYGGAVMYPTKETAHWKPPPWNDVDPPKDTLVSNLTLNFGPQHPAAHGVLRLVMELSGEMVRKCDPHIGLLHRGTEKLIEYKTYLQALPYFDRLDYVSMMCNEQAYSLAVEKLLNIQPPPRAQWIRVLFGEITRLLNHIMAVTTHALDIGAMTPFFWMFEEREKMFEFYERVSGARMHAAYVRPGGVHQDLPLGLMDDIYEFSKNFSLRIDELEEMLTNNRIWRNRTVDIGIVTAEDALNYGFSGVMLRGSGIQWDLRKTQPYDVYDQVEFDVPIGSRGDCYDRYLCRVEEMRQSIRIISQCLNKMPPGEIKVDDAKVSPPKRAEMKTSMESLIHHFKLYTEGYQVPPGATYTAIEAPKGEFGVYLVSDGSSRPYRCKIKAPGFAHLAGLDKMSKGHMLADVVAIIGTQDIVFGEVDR
Sequence (P42026 38-216): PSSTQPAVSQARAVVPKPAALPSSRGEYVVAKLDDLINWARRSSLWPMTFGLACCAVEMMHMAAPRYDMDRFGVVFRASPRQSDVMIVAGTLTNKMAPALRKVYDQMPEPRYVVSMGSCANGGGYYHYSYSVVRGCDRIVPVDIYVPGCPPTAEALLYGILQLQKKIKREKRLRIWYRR
Record form. Attribute: activity at 0.313 µM. Fill in for each entry.
Reply with just the number (in %).

// lookup activity at 0.313 µM for COc1cc2c(cc1OC)C(c1ccc(-c3ccc(Cl)c(Cl)c3)o1)=NCC2 [NPD3577]
118

// lookup activity at 0.313 µM for COc1cc2c(cc1OC)C(C(C)c1ccc(CC(C)C)cc1)=NCC2 (stereo not shown) [NPD10504]
106

// lookup activity at 0.313 µM for COc1cc2c(cc1OC)C(/C=C/c1ccc(N(C)C)cc1)=NCC2 [NPD6303]
91.3

// lookup activity at 0.313 µM for CC(C)Cc1ccc(C(C)c2nc3ccccc3n2C)cc1 (stereo not shown) [NPD8790]
118

* * *

Record form. Attribute: activity at 37.5 µM. Fill in for each entry.
target: C. elegans (N2) complex I (NADH:ubiquinone oxidoreductase) (Caenorhabditis elegans, UniProt P24887+Q93873+Q94360); assay: biochemical; format: biochemical; conditions: Dose 37.5 µM; read-out: C. elegans mitochondrial complex I activity
Reply with just the number (in %).

// lookup activity at 37.5 µM for Clc1ccc(OCCn2cnc3ccccc32)c(Cl)c1 [Compound 7221649]
11.4

// lookup activity at 37.5 µM for CCc1cc(OCCn2cnc3ccccc32)ccc1Cl [Compound 7925288]
4.53

// lookup activity at 37.5 µM for Cc1ccccc1OCCCn1c(C)nc2ccccc21 [Compound 7916923]
4.39

// lookup activity at 37.5 µM for Cc1nc2ccccc2n1Cc1ccc(Cl)c(Cl)c1 [Compound 5655567]
0.7

// lookup activity at 37.5 µM for Cc1ccc(CSCc2nc3ccccc3[nH]2)cc1 [Compound 7121781]
43.5

// lookup activity at 37.5 µM for CCCn1c(COc2ccc(C)cc2)nc2ccccc21 [Compound 6944471]
89.5

// lookup activity at 37.5 µM for Cc1ccc(SCCCCn2cnc3ccccc32)cc1 [Compound 7925333]
5.81

// lookup activity at 37.5 µM for CC(C)Oc1cccc(OCCn2cnc3ccccc32)c1 [Compound 7926496]
0.13

// lookup activity at 37.5 µM for Cc1ccccc1OCCCCn1cnc2ccccc21 [Compound 7732524]
3.31

// lookup activity at 37.5 µM for CCCOc1ccc(Cn2cnc3ccccc32)cc1 [Compound 7355741]
5.38
